This listing pairs binders with measured IC50.
Target: T1, biotinylated Human PD1 (AcroBiosystems, reference EP-101) (human, UniProt Q15116 25-167, biotinylated)
T1 construct: also called Biotin-PD-1Fc; not shown: Fc part implied by the name 'Biotin-PD-1Fc'
T1 sequence (Q15116 25-167): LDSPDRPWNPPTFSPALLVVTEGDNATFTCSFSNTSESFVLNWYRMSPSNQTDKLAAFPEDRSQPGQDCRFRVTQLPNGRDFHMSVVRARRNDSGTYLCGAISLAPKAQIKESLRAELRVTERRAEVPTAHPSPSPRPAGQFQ
Assay: competition ELISA, immobilized hPDL1 as competitor, biotinylated PD1 0.66 µg/ml mixed with antibody
endpoint-label: IC50 (µg/mL)

binder="HGLD (antibody, human IgG4 S228P, kappa, V domains shown, also called humanized anti-PD1 variant HG heavy chain + LD light chain) VH: QIQLVQSGSELKKPGASVKVSCKASGYTFTHYAMNWVRQAPGQGLEWMGWINTNTGEPTYAQGFTGRFVFSLDTSVSTAYLQISSLKAEDTAVYYCAREREPGMESWGQGTLVTVSS VL: DVVMTQSPLSLPVTLGQPASISCRSSQSLVHANTNTYLEWYQQRPGQSPRLLIYKVSNRFSGVPDRFSGSGSGTDFTLKISRVEAEDVGVYYCFQGTHVPNTFGQGTKLEIKR" numeric_value=0.178
binder="HELD (antibody, human IgG4 S228P, kappa, V domains shown, also called humanized anti-PD1 variant HE heavy chain + LD light chain; HELD(V94)) VH: QIQLVQSGSELKKPGASVKVSCKASGYTFTHYAMNWVRQAPGQGLEWMGWINTNTGEPTYAQGFTGRFVFSLDTSVSTAYLQISSLKAEDTAVYYCAREREPGMDTWGQGTLVTVSS VL: DVVMTQSPLSLPVTLGQPASISCRSSQSLVHANTNTYLEWYQQRPGQSPRLLIYKVSNRFSGVPDRFSGSGSGTDFTLKISRVEAEDVGVYYCFQGTHVPNTFGQGTKLEIKR" numeric_value=0.196
binder="HCLD (antibody, human IgG4 S228P, kappa, V domains shown, also called humanized anti-PD1 variant HC heavy chain + LD light chain) VH: QIQLVQSGSELKKPGASVKVSCKASGYTFTHYAMNWVRQAPGQGLEWMGWINTNTGEPTYAQGFTGRFVFSLDTSVSTAYLQISSLKAEDTAVYYCAREREPGMDSWGQGTLVTVSS VL: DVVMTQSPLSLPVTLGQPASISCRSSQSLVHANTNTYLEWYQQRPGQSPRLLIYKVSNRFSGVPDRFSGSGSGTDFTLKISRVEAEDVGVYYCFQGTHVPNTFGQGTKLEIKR" numeric_value=0.196
